biological target: T1, HLA-A*02:01 (human, biotinylated heavy chain); test: UV peptide exchange; HLA class I ELISA
T1 construct: Conditional HLA class I complex as for m1
endpoint_name: exchange rate with Pos (%)
Only the number, expressed in %, is required.

Example cases with answers are listed next.
STRRAVRRM (Synthetic 9-mer) [P16 9-mer STRRAVRRM (MSMB-NCOA4 fusion)]; 10.4
NSKMALNSL (Synthetic 9-mer) [P35 9-mer NSKMALNSL (TMPRSS2-ERG fusion)]; 12.5
GVLRRLLCR (Synthetic 9-mer) [P37 9-mer GVLRRLLCR (TSTD1-F11R fusion)]; 12.5

*Q* Which exchange rate with Pos value is on record for IQYSCMGLM (Synthetic 9-mer) [P50 9-mer IQYSCMGLM (AR W742C)] ?
*A* 8.8

*Q* Which exchange rate with Pos is listed for FPVGAEGTF (Synthetic 9-mer) [P27 9-mer FPVGAEGTF (FAM126B-ORC2 fusion)] ?
*A* 10

*Q* Data request, read-out exchange rate with Pos, for NMVENGCYL (Synthetic 9-mer) [P59 9-mer NMVENGCYL (FOXA1 F254V)]
*A* 11.9
